Data credit: ChEMBL document CHEMBL3585343

Entries annotated with measured chromatographic logD
# assay-notes: Distribution coefficient, log D of the compound at pH 7.4 by chromatographic method
# Type: physicochemical

smiles-input | chromatographic logD
Cc1cc2ccnc(NC3CCN(C4CC4)CC3)c2[nH]c1=O | 2.8

Let us examine a further case.
Report chromatographic logD for `COCCN1CCC(Nc2nccc3cc(C)c(=O)[nH]c23)CC1` please.
1.4

====

Bromodomain-containing protein 4 (Homo sapiens, UniProt O60885, Y390A): reported IC50 for various compounds.
Answer format: number, then unit.

smiles-input | IC50
Cc1cc2c(-c3cncc(C(N)=O)c3)cnc(NC3CCNCC3)c2[nH]c1=O | 3.98 µM
Cc1cc2c(-c3cccc(O)c3)cnc(NC3CCNCC3)c2[nH]c1=O | 0.631 µM
Cc1cc2c(-c3ccccn3)cnc(NC3CCNCC3)c2[nH]c1=O | 5.01 µM
Cc1cc2c(-c3ccccc3)cnc(NC3CCNCC3)c2[nH]c1=O | 0.794 µM
Cc1cc2c(-c3cn[nH]c3)cnc(NC3CCNCC3)c2[nH]c1=O | 0.794 µM

Turning now to a further record.
Looking for the measured IC50 of `Cc1cc2ccnc(NCCC3CCNCC3)c2[nH]c1=O` , can you help?
12.6 µM

====

Below are IC50 values measured for Bromodomain-containing protein 4 (Homo sapiens, UniProt O60885, Y390A).
# output: bare number, implied unit µM

Solved cases (3 shown):
smiles-input | IC50, µM
Cc1cc2ccnc(N[C@@H]3CCCNC3)c2[nH]c1=O | 15.8
Cc1cc2c(-c3cccnc3)cnc(NC3CCNCC3)c2[nH]c1=O | 2
Cc1cc2c(-c3cncnc3)cnc(NC3CCNCC3)c2[nH]c1=O | 15.8

Query the reported IC50 for Bromodomain-containing protein 4 (Homo sapiens, UniProt O60885, Y390A); item: `Cc1ccncc1-c1cnc(NC2CCNCC2)c2[nH]c(=O)c(C)cc12`
3.16

====

# assay-notes: Distribution coefficient, log D of the compound at pH 7.4 by chromatographic method
# Assay type: physicochemical
observable: chromatographic logD
Reply with just the number.

smiles-input | readout-number
COCCCN1CCC(Nc2nccc3cc(C)c(=O)[nH]c23)CC1 | 1.4
Cc1cc2c(-c3cncc(NS(C)(=O)=O)c3)cnc(NC3CCNCC3)c2[nH]c1=O | 0.2
Cc1cc2c(-c3cncc(N)c3)cnc(NC3CCNCC3)c2[nH]c1=O | 0
Cc1ccncc1-c1cnc(NC2CCNCC2)c2[nH]c(=O)c(C)cc12 | 0.9
Cc1ccc(-c2cnc(NC3CCNCC3)c3[nH]c(=O)c(C)cc23)cn1 | 1.1
Cc1cc2c(-c3ccccn3)cnc(NC3CCNCC3)c2[nH]c1=O | 1
CC(=O)N1CCc2cc(-c3cnc(NC4CCNCC4)c4[nH]c(=O)c(C)cc34)ccc21 | 1.4
Cc1cc2c(-c3cncnc3)cnc(NC3CCNCC3)c2[nH]c1=O | 0.3

Could you share which chromatographic logD value was measured for `Cc1cc2c(-c3cn[nH]c3)cnc(NC3CCNCC3)c2[nH]c1=O` ?
0

Consider the molecule shown here: `Cc1cc2ccnc(NC3CCN(C)CC3)c2[nH]c1=O` What is its recorded chromatographic logD?
0.5

====

# assay-notes: Distribution coefficient, log D of the compound at pH 7.4 by chromatographic method
# Format: physicochemical
observable: chromatographic logD

smiles-input | chromatographic logD
Cc1cncc(-c2cnc(NC3CCNCC3)c3[nH]c(=O)c(C)cc23)c1 | 1.2
Cc1cc2c(-c3cncc(Cl)c3)cnc(NC3CCNCC3)c2[nH]c1=O | 1.7
Cc1cncc(-c2cnc(NC3CCNCC3)c3[nH]c(=O)c(C)cc23)c1C | 1.4
Cc1cc2ccnc(N[C@H]3C[C@H]4CC[C@@H](C3)N4C)c2[nH]c1=O | 1.2
Cc1cc2c(-c3ccccc3)cnc(NC3CCNCC3)c2[nH]c1=O | 2.5

Which chromatographic logD value is on record for `COc1cncc(-c2cnc(NC3CCNCC3)c3[nH]c(=O)c(C)cc23)c1` ?
1.1

# query: chromatographic logD of entry `COc1ccc(-c2cnc(NC3CCNCC3)c3[nH]c(=O)c(C)cc23)cn1`
1.6

Look up chromatographic logD for this compound: `Cc1cc2c(-c3cccc(O)c3)cnc(NC3CCNCC3)c2[nH]c1=O`
1.3

What value of chromatographic logD has been reported for the following compound? `Cc1cc2c(-c3cccnc3)cnc(NC3CCNCC3)c2[nH]c1=O`
0.8

Quick one: chromatographic logD of `Cc1cc2c(-c3cncc(COC(N)=O)c3)cnc(NC3CCNCC3)c2[nH]c1=O` ?
0.3

Find the recorded chromatographic logD belonging to `Cc1cc2ccnc(NC3CCNCC3)c2[nH]c1=O` and report it.
0.6

====

# assay-notes: Distribution coefficient, log D of the compound at pH 7.4 by chromatographic method
# Assay type: physicochemical
observable: chromatographic logD
Please reply with the value in numeric form only.

What value of measured chromatographic logD is listed for `Cc1cc2c(-c3cc[nH]n3)cnc(NC3CCNCC3)c2[nH]c1=O` ?
0.4

====

# assay-notes: Distribution coefficient, log D of the compound at pH 7.4 by chromatographic method
# Assay type: physicochemical
Here the recorded chromatographic logD is given for each entry.
Form field (numeric): enter value without unit.

These recorded examples may help you get a feel for the data.
smiles-input | observable | readout-number
Cc1cc2c(-c3cccc4[nH]ncc34)cnc(NC3CCNCC3)c2[nH]c1=O | chromatographic logD | 1.2
Cc1cc2c(-c3cncc(C(N)=O)c3)cnc(NC3CCNCC3)c2[nH]c1=O | chromatographic logD | -0.2
Cc1cc2ccnc(N[C@@H]3C[C@H]4CC[C@@H](C3)N4C)c2[nH]c1=O | chromatographic logD | 1
Cc1ncccc1-c1cnc(NC2CCNCC2)c2[nH]c(=O)c(C)cc12 | chromatographic logD | 0.8

Proceed to the following item.
Field request: chromatographic logD | item: `Cc1cc2c(-c3ccncc3)cnc(NC3CCNCC3)c2[nH]c1=O`
1
